- Target under test: acetylcholine receptor
- Experimental details: SPR, receptor immobilised on chip, peptide at 10 uM
Property name: Binding affinity (RU)

Record excerpt, results attached:
| Binder | Recorded measurement |
| --- | --- |
| RIPWRR [6mer-2-932] | 35 |
| KKCARR [6mer-2-939] | 22 |

A = KFKNRR [6mer-2-913]
B = KCEDRK [6mer-2-964]
Data request: Which has the higher Binding affinity (RU), A or B ? Could you answer with the label of the item you picked?
Data returned: B
(B: 41 RU, A: 25 RU)
